Just for reference, paper PMC8805605 is where these values come from.

- tested_system: human recombinant ADAM8 (Homo sapiens, UniProt P78325)
- Construct: kind gift of Franka Scharfenberg, University of Kiel
- Sequence (P78325 17-824): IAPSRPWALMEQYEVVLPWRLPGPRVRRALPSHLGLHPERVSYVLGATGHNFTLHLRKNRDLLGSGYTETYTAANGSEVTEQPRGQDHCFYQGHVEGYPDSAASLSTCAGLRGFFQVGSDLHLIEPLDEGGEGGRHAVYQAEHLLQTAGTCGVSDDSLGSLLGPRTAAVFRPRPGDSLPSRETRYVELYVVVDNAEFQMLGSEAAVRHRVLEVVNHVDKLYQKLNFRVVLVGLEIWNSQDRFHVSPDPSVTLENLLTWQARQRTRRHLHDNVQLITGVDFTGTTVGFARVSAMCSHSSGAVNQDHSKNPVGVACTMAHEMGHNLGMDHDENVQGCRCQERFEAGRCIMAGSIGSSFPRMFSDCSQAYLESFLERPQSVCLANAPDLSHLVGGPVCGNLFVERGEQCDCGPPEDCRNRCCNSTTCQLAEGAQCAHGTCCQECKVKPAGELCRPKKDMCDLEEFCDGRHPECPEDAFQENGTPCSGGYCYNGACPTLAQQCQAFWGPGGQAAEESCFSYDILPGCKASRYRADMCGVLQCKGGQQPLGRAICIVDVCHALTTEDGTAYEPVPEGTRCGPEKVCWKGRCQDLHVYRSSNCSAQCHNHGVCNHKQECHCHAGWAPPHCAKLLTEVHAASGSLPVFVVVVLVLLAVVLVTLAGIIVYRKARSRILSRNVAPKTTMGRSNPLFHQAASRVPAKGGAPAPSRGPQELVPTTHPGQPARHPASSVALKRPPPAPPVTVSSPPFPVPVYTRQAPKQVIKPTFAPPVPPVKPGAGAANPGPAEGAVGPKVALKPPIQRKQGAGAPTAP
- procedure_summary: ADAM8 fluorometric inhibition assay
- Type: biochemical
- measurement_setup: human recombinant enzyme, fluorometric assay; mean of three independent experiments in duplicate; read-out: In vitro inhibitory activity IC50 on ADAM8
result_type: pIC50
One number for each entry, as −log10 of the molar value.

Worked examples, 3 compounds total:
>  <compound>
O=C(NCCC[C@@H](NS(=O)(=O)c1ccc(OCc2cc(Br)cc(Br)c2)cc1)C(=O)NO)c1cccc(C(=O)NCCC[C@@H](NS(=O)(=O)c2ccc(OCc3cc(Br)cc(Br)c3)cc2)C(=O)NO)c1

>  <pIC50>
7.14

$$$$
>  <compound>
O=C(CCCNC(=O)c1cccc(C(=O)NCCCC(=O)NCCC[C@@H](NS(=O)(=O)c2ccc(OCc3cc(Br)cc(Br)c3)cc2)C(=O)NO)c1)NCCC[C@@H](NS(=O)(=O)c1ccc(OCc2cc(Br)cc(Br)c2)cc1)C(=O)NO

>  <pIC50>
7.39

$$$$
>  <compound>
O=C(NCCC[C@@H](NS(=O)(=O)c1ccc(OCc2cc(Br)cc(Br)c2)cc1)C(=O)NO)NCCC[C@@H](NS(=O)(=O)c1ccc(OCc2cc(Br)cc(Br)c2)cc1)C(=O)NO

>  <pIC50>
6.25

$$$$

Consider the additional compound presented here.
**Query** Which pIC50 is listed for NC(=O)NCCC[C@@H](NS(=O)(=O)c1ccc(OCc2cc(Br)cc(Br)c2)cc1)C(=O)NO [JG26, reference compound] ?
**Result** 7.92
